What GI50 was measured for each of the following?
test system: SNB-19; assay: NCI tumour cell line growth inhibition, 48 h
Calls of active or inactive are those of the source. No stated cut-off is given here; in the data, active = GI50 up to about 1.1 µM and inactive = higher.

Here are 10 compounds together with their reported answers.
>>> reported_value("O=C1CC(c2ccco2)C2(C(=O)NC(=O)NC2=O)C(c2ccco2)C1 (stereo unspecified)")
"> 75 µM (inactive)"
>>> reported_value("CCO[C@]12CCC[C@H]1[C@@H]1C(=O)c3ccccc3C(=O)C1=C(C)O2")
"> 100 µM (inactive)"
>>> reported_value("O=C1C(Cl)=C(N2CCN(c3ccccn3)CC2)C(=O)c2ncccc21")
"12.5 µM (inactive)"
>>> reported_value("COc1cccc2c1C(=O)C(=O)c1c-2oc(=O)c2cc(C)cc(OC)c12")
"37.8 µM (inactive)"
>>> reported_value("CC1=C(O)C(=O)C2C(=O)C1C(C)C2c1ccc(C)cc1 (stereo unspecified)")
"> 100 µM (inactive)"
>>> reported_value("OCCCCn1cc(Cn2ncc3c(SCc4ccccc4)ncnc32)nn1")
"65.5 µM (inactive)"
>>> reported_value("COc1ccc2c3c1OC1C(=O)C=CC4(O)C(C2)NCC[C@@]314 (stereo partly specified)")
"5.55 µM (inactive)"
>>> reported_value("Nc1nc(-c2cccs2)cs1")
"> 100 µM (inactive)"
>>> reported_value("NC(=O)N/C=C1\\C(=O)Oc2ccccc2C1=O")
"82.8 µM (inactive)"
>>> reported_value("O=C1CCC(=O)N1CNc1ccc2c(c1)Sc1ccccc1O2")
"67.3 µM (inactive)"

Consider now this further compound.
# input Which GI50 value belongs to CCOP(=O)(OCC)C(Nc1cccc([N+](=O)[O-])c1)c1ccccc1 (stereo unspecified) ?
# output > 100 µM (inactive)

----------
test system: KM12; experiment: NCI tumour cell line growth inhibition, 48 h
Calls of active or inactive are those of the source. Cut-off read from the data, not from the text of the source: active = GI50 up to about 1.1 µM and inactive = higher.
outcome.measure: GI50

Reference set (5 entries):
>>> reported_value("Brc1cccc(C2SCc3nc4ccccc4n32)c1 (stereo not given)")
"16.1 µM (inactive)"
>>> reported_value("C[C@H](CCc1nc(C#N)c(N)o1)[C@H]1CC[C@H]2[C@@H]3[C@@H](O)CC4C[C@@H](O)CC[C@]4(C)[C@H]3C[C@@H](O)[C@]12C (stereo not given in full)")
"17.7 µM (inactive)"
>>> reported_value("Cc1cc2c(O)c(c1)COCc1cc(C)cc(c1O)COCc1cc(C)cc(c1O)COC2")
"> 100 µM (inactive)"
>>> reported_value("CCc1cccc(C(C)C)c1NC(=O)CC1Sc2ccccc2NC1=O (stereo not given)")
"54.8 µM (inactive)"
>>> reported_value("Cc1ccc(C2(N3CCOCC3)OC(C)(C)c3cccc4cccc2c34)cc1 (stereo not given)")
"21.1 µM (inactive)"

Fill in GI50 for each of the 3 compounds listed.
1. CC(C)(C)OC(=O)NCC(CNC(=O)OC(C)(C)C)c1nc(C(N)=O)cs1
2. S=C(Nc1ccccc1)c1ccc(CN2CCCCC2)s1
3. CN(C(=O)C12C3(C(=O)O)C4C5(C(=O)O)C3C1(C(=O)O)C5C42C(=O)O)C(C)(C)C (stereo not given)

# output
> 100 µM (inactive)
17.8 µM (inactive)
> 100 µM (inactive)

# per-item lookup of GI50; items listed below
1. O=C(C[N+]12CN3CN(CN(C3)C1)C2)c1ccc(-c2ccccc2)cc1
2. N#CC(c1ccc(Cl)cc1)c1c(=O)[nH]c2ccc(N)cc2[n+]1[O-] (stereo not given)

# output
["32 µM (inactive)", "> 100 µM (inactive)"]
